# system-under-test: AvGluR1 LBD (Adineta vaga, UniProt E9P5T5, INS567GT)
# Sequence (E9P5T5 with tags, fused parts or gaps INS567GT): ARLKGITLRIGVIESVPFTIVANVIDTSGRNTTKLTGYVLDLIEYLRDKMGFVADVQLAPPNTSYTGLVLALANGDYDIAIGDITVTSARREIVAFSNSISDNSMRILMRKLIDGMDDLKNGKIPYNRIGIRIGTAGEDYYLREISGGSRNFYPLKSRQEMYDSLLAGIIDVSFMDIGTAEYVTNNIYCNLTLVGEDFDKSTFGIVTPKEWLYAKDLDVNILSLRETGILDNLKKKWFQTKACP
# assay-info: biochemical
# Format: binding
# experimental-context: Kd, sequence of Kd values, Figure 1C and Table S1
pKd: −log10 of the molar value.

compound | pKd
N[C@@H](CCC(=O)O)C(=O)O [glutamate, L-glutamate] | 6.69

---

# system-under-test: AvGluR1 LBD (Adineta vaga, UniProt E9P5T5, INS567GT)
# assay-info: Saturation binding of [3H] L-glutamate to AvGluR1 LBD apo protein

molecule | Kd [nM]
N[C@@H](CCC(=O)O)C(=O)O [glutamate, L-glutamate] | 203
